# Tested Target: the molecule itself
# Assay Comment: sedimentation of polymers; 7 µM FtsZ in Mes/NaOH 50 mM, MgCl2 10 mM, KCl 133 mM, DEAE-dextran 0.6 mg/mL, pH 6.5, GTP 2 mM, room temperature, 100.000 rpm 15 min; pellet and supernatant on SDS-PAGE

| Protein | binding result |
| --- | --- |
| His6-FtsZ T111A (natural protein, B. subtilis, UniProt P17865 1-382, looked up, FtsZ of Bacillus subtilis, promiscuous mutant in the N-terminal subdomain; source: E. coli BL21(DE3)-RIL, purified (two-step ammonium sulfate and GTP+Ca2+ precipitation); not shown: His6, N-terminal, kept) MLEFETNIDGLASIKVIGVGGGGNNAVNRMIENEVQGVEYIAVNTDAQALNLSKAEVKMQIGAKLTRGLGAGANPEVGKKAAEESKEQIEEALKGADMVFVTAGMGGGTGAGAAPVIAQIAKDLGALTVGVVTRPFTFEGRKRQLQAAGGISAMKEAVDTLIVIPNDRILEIVDKNTPMLEAFREADNVLRQGVQGISDLIATPGLINLDFADVKTIMSNKGSALMGIGIATGENRAAEAAKKAISSPLLEAAIDGAQGVLMNITGGTNLSLYEVQEAADIVASASDQDVNMIFGSVINENLKDEIVVTVIATGFIEQEKDVTKPQRPSLNQSIKTHNQSVPKREPKREEPQQQNTVSRHTSQPADDTLDIPTFLRNRNKRG | binds |
